Assay Target: thrombin (human (plasma), UniProt P00734;P00734 328-363;364-622)
Protocol Details: graphene FET, real-time drain current
Measured Quantity: Kd (nM)
Only the number, expressed in nM, is required.

Ask: So what's the measured Kd for this one? CCATCTCCACTTGGTTGGTGTGGTTGG (structured_DNA, 5' NH2-(CH2)6, amide-coupled to PBASE on graphene) [anti-thrombin DNA aptamer]
Reply: 0.732
